Just for reference, PubChem BioAssay AID1117319 is where these values come from.

TARGET OF ASSAY: Virion infectivity factor (Human immunodeficiency virus type 1 group M subtype B (isolate BH10)) + Virion infectivity factor (Human immunodeficiency virus type 1 group M subtype B (isolate BRU/LAI)) + Virion infectivity factor (Human immunodeficiency virus type 1 group M subtype B (isolate PCV12)) + Virion infectivity factor (Human immunodeficiency virus type 1 group M subtype B (isolate HXB2)) + DNA dC->dU-editing enzyme APOBEC-3G (Homo sapiens) (UniProt P69720+P69721+P69722+P69723+Q9HC16)
MEASUREMENT PROTOCOL: inhibitors of Vif binding to APOBEC3G peptide, primary screen, biochemical, TR-FRET, GST-Vif 1-94, biotin-A3G peptide, dose response retest (AID 1117319);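 further: Vif residues 1-94 fused to GST binding biotinylated APOBEC3G peptide 110-148; 0% = full assay without inhibitor and 100% = GST in place of GST-Vif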
CONDITIONS USED: hits give high values
The campaign covered roughly 260,000 compounds. About 1,500 (0.58%) were called active. Roughly 5% stayed inconclusive and do not appear here. A selection follows. Entries with a potency or affinity are not part of this list.
MEASURED PARAMETER: inhibition (%)
Just the number in %, nothing appended.

Examples with their reported inhibition follow.
COMPOUND: O=C(O)c1cccc(N/N=C/c2ccc(OC(F)(F)F)cc2)c1
inhibition [%]: 0.25
//
COMPOUND: N#Cc1ccc(OCc2cccc(S(=O)(=O)N3CCOCC3)c2)cc1
inhibition [%]: 0.78
//
COMPOUND: CSc1ccc(/C=N/Nc2ccc(Cl)c(C(=O)O)c2)cc1
inhibition [%]: 14.3
//
COMPOUND: Cc1cc(-c2nnc(CCC(=O)N3CCN(Cc4cccc(F)c4)CC3)o2)c(C)o1
inhibition [%]: -7.15
//
COMPOUND: Cc1nn(C)cc1/C=N/NC(=S)Nc1ccccc1
inhibition [%]: 0.96

Quick note, inhibition for CN(C)c1nc(NNC(=O)c2ccccc2)nc(N(C)C)n1 landed at -5.34

Quick note, inhibition for COC(=O)c1ccc(COc2ccccc2/C=N/Nc2cccc(C(=O)O)c2)cc1 landed at 9.8

Quick note, inhibition for COc1cc([C@H]2[C@@H]3CCCC[C@]3(O)CCN2Cc2ccccc2F)ccc1O landed at 4.71

Quick note, inhibition for CCOc1ccccc1NC(=O)COC(=O)COc1cccc2c1OC(C)(C)C2 landed at 2.02

Quick note, inhibition for CCOC(=O)N1CCN(CC(O)COCCC23CC4CC(CC(C4)C2)C3)CC1 (stereo unspecified) landed at 13.8

Quick note, inhibition for Cc1ccc(CN2CCSc3ccc(C(=O)NCc4cccnc4)cc32)cc1 landed at -7.4
